# Tested on: P. infestans
# Assay type: cell-based
# CONDITION NOTES: Ala-scan of Ac-LP32; P. infestans mycelium in vitro
Square brackets hold non-standard residues; d marks the D form. Peptide text beside a SMILES is read from it. βAla = NCCC(=O)O
RECORDED METRIC: PPI (%) micelio
Give bare numbers, in %.

CC(=O)NCCC(=O)NCC(=O)N[C@@H](C)C(=O)N[C@@H](CC(C)C)C(=O)N[C@@H](CCCNC(=N)N)C(=O)N[C@@H](Cc1c[nH]c2ccccc12)C(=O)N[C@@H](CC(C)C)C(=O)N[C@@H](CCCNC(=N)N)C(=O)N[C@H](C(N)=O)C(C)C [Ac-LP32-Ala3, Ac-βA-GALRWLRV-CONH2] (Ac-[βAla]GALRWLRV-NH2): 58.78

For every item below, please supply its PPI (%) micelio.
1. CC(=O)NCCC(=O)N[C@@H](C)C(=O)N[C@@H](CCCNC(=N)N)C(=O)N[C@@H](CC(C)C)C(=O)N[C@@H](CCCNC(=N)N)C(=O)N[C@@H](Cc1c[nH]c2ccccc12)C(=O)N[C@@H](CC(C)C)C(=O)N[C@@H](CCCNC(=N)N)C(=O)N[C@H](C(N)=O)C(C)C [Ac-LP32-Ala2, Ac-βA-ARLRWLRV-CONH2] (Ac-[βAla]ARLRWLRV-NH2)
2. CC(=O)NCCC(=O)NCC(=O)N[C@@H](CCCNC(=N)N)C(=O)N[C@@H](CC(C)C)C(=O)N[C@@H](CCCNC(=N)N)C(=O)N[C@@H](Cc1c[nH]c2ccccc12)C(=O)N[C@@H](CC(C)C)C(=O)N[C@@H](CCCNC(=N)N)C(=O)N[C@@H](C)C(N)=O [Ac-LP32-Ala9, Ac-βA-GRLRWLRA-CONH2] (Ac-[βAla]GRLRWLRA-NH2)
3. CC(=O)NCCC(=O)NCC(=O)N[C@@H](CCCNC(=N)N)C(=O)N[C@@H](CC(C)C)C(=O)N[C@@H](CCCNC(=N)N)C(=O)N[C@@H](Cc1c[nH]c2ccccc12)C(=O)N[C@@H](C)C(=O)N[C@@H](CCCNC(=N)N)C(=O)N[C@H](C(N)=O)C(C)C [Ac-LP32-Ala7, Ac-βA-GRLRWARV-CONH2] (Ac-[βAla]GRLRWARV-NH2)

74.81
19.85
59.29

For every item below, please supply its PPI (%) micelio.
1. CC(=O)NCCC(=O)NCC(=O)N[C@@H](CCCNC(=N)N)C(=O)N[C@@H](CC(C)C)C(=O)N[C@@H](C)C(=O)N[C@@H](Cc1c[nH]c2ccccc12)C(=O)N[C@@H](CC(C)C)C(=O)N[C@@H](CCCNC(=N)N)C(=O)N[C@H](C(N)=O)C(C)C [Ac-LP32-Ala5, Ac-βA-GRLAWLRV-CONH2] (Ac-[βAla]GRLAWLRV-NH2)
2. CC(=O)NCCC(=O)NCC(=O)N[C@@H](CCCNC(=N)N)C(=O)N[C@@H](CC(C)C)C(=O)N[C@@H](CCCNC(=N)N)C(=O)N[C@@H](C)C(=O)N[C@@H](CC(C)C)C(=O)N[C@@H](CCCNC(=N)N)C(=O)N[C@H](C(N)=O)C(C)C [Ac-LP32-Ala6, Ac-βA-GRLRALRV-CONH2] (Ac-[βAla]GRLRALRV-NH2)

40.46
54.20
